These data points were gathered from patent US9890103B2.

Please go through the items and note down their degree of extraction.
Assay: Extraction of mono- and dibasic acids from 0.1M aqueous solution into toluene or MMA/toluene mixtures
Format: physicochemical
Conditions: Fraction of MMA in MMA/Toluene solvent mixture 0.8; equal volume; in %
Protocol: The following experimental conditions were used unless indicated otherwise:— • 0.1M Acids • 1:1 vol:vol aq:solvent • Room Temperature • 1 minutes agitation time; 5 min settling time • Solvent is toluene unless where stated • Analysis by HPLC Monobasic and dibasic acids likely to be present in aqueous solution following partial decomposition of mono and dicarboxylic acids expected to be found from decomposition of dibasic or tribasic acids were compared for their solubility in toluene. […]

The examples below pair each entry with its known result.
[
  {
    "compound": "C=C(C)C(=O)O",
    "measure.name": "degree of extraction",
    "experimental.value": 81.42
  },
  {
    "compound": "C/C(=C\\C(=O)O)C(=O)O",
    "measure.name": "degree of extraction",
    "experimental.value": 47.19
  },
  {
    "compound": "CC(=O)C(=O)O",
    "measure.name": "degree of extraction",
    "experimental.value": 5.57
  },
  {
    "compound": "C/C=C/C(=O)O",
    "measure.name": "degree of extraction",
    "experimental.value": 70.86
  }
]

Would you be so kind as to report degree of extraction for each listed record?
1. C=C(CC(=O)O)C(=O)O
2. CC(C)(O)C(=O)O [HIB, Hydroxyisobutyric Acid]

1. 9.57
2. 21.47

###

Assay: Extraction of mono- and dibasic acids from 0.1M aqueous solution into toluene or MMA/toluene mixtures
Format: physicochemical
Settings: Fraction of MMA in MMA/Toluene solvent mixture 0.5; equal volume; in %
Please go through the items and note down their degree of extraction.
Answers are plain numbers.

The examples below pair each entry with its known result.
[
  {
    "molecule": "CC(=O)C(=O)O [PY, Pyruvic Acid]",
    "degree of extraction": 2.07
  },
  {
    "molecule": "C=C(CC(=O)O)C(=O)O [IC, Itaconic Acid]",
    "degree of extraction": 2.89
  },
  {
    "molecule": "C/C=C/C(=O)O [CT, Crotonic Acid]",
    "degree of extraction": 61.15
  },
  {
    "molecule": "CC(C)(O)C(=O)O [HIB, Hydroxyisobutyric Acid]",
    "degree of extraction": 5.76
  },
  {
    "molecule": "C=C(C)C(=O)O [MAA, Methacrylic Acid]",
    "degree of extraction": 74.28
  }
]

Now look at this one.
Requested read-out: degree of extraction. Entry: C/C(=C\C(=O)O)C(=O)O [MC, Mesaconic Acid]
20.56

###

Experiment: Extraction of mono- and dibasic acids from 0.1M aqueous solution into toluene or MMA/toluene mixtures
Type: physicochemical
Conditions: each acid 0.1M in water, equal volume of toluene
Please go through the items and note down their Fraction Transferred to Toluene.
Give bare numbers, in %.

Would you be so kind as to report Fraction Transferred to Toluene for each listed record?
1. C=C(C)C(=O)O
2. CC(=O)C(=O)O
3. C/C=C/C(=O)O
4. C=C(CC(=O)O)C(=O)O

1. 54.4
2. 0
3. 40.11
4. 0

Would you be so kind as to report Fraction Transferred to Toluene for each listed record?
1. C/C(=C\C(=O)O)C(=O)O
2. CC(C)(O)C(=O)O [HIB, Hydroxyisobutyric Acid]

0.64
4.21
